Examples of molecules with documented IC50 follow.
Molecular target: GIPR (CHO-K1-hGIPR cells) (Homo sapiens, UniProt P48546)
Construct: host or cells: CHO-K1
Sequence (P48546 22-466): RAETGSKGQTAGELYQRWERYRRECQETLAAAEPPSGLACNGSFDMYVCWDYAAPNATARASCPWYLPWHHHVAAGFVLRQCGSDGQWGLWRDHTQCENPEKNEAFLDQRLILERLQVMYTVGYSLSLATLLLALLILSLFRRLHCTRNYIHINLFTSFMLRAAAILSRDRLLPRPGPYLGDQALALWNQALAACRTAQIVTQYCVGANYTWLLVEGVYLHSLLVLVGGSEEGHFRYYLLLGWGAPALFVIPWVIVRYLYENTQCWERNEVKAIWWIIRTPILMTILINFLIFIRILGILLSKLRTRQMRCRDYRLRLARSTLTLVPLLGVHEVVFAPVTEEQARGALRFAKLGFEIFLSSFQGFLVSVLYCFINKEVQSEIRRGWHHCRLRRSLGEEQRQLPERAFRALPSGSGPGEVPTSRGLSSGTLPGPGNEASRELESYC
Test: FACS binding assay
Conditions: competition with 20 nM GIP-057, 4° C., 1 hour, read-out: pIC50 Category (converted)
*1 amine or outer side, *2 acyl side, *3 side chain or, on linkers, in order; H or OH if unused. Where a SMILES comes first, the peptide text is derived from it. Bridges are numbered along the chain shown (N, C = ends). [ ]: non-standard residue; d: D form. The star is where a group is joined. X3 = O=C(O)CN1CCN(CC(=O)O)CCN(CC(=O)NCCCOCCOCCOCCCN*)CCN(CC(=O)O)CC1; Trp(5-Cl) = N[C@@H](Cc1c[nH]c2ccc(Cl)cc12)C(=O)O; Pro(4S-NH2) = N[C@@H]1CN[C@H](C(=O)O)C1; X7 = c1cc(CSCCN[*:2])cc(C[*:1])c1; Suc = O=C(CCC(=O)[*:2])[*:1]; Aib = CC(C)(N)C(=O)O; Sar = CNCC(=O)O

{"molecule": "CC[C@H](C)[C@@H]1NC(=O)[C@H](CC(C)C)NC(=O)C(C)(C)NC(=O)[C@@H](NC(=O)[C@@H](CC(C)C)NC(=O)[C@H](CCC(=O)O)NC(=O)CN(C)C(=O)[C@H](Cc2c[nH]c3ccc(Cl)cc23)NC(=O)[C@H](Cc2c[nH]c3ccccc23)NC(=O)[C@H](CC(=O)O)NC(=O)CCC(=O)NCCCOCCOCCOCCCNC(=O)CN2CCN(CC(=O)O)CCN(CC(=O)O)CCN(CC(=O)O)CC2)CSCc2cccc(c2)CSCCNC1=O [GIP-100] ({X3-Suc}-DW[Trp(5-Cl)][Sar]E[dL]C[Aib]LI; linker 7-C via X7)", "IC50": "< 10 nM"}

Lookup: If you can, please state the reported IC50 value of CC[C@H](C)[C@@H]1NC(=O)[C@H](CC(C)C)NC(=O)C(C)(C)NC(=O)[C@@H](NC(=O)[C@@H](CC(C)C)NC(=O)[C@H](CCC(=O)O)NC(=O)[C@@H]2C[C@H](N)CN2C(=O)[C@H](Cc2c[nH]c3ccc(Cl)cc23)NC(=O)[C@H](Cc2c[nH]c3ccccc23)NC(=O)[C@H](CC(=O)O)NC(=O)CCC(=O)NCCCOCCOCCOCCCNC(=O)CN2CCN(CC(=O)O)CCN(CC(=O)O)CCN(CC(=O)O)CC2)CSCc2cccc(c2)CSCCNC1=O [GIP-096] ({X3-Suc}-DW[Trp(5-Cl)][Pro(4S-NH2)]E[dL]C[Aib]LI; linker 7-C via X7) .
Found: < 10 nM

====

# Kd per entry
Target: human GIP receptor (bioGIPR) (Homo sapiens, UniProt P48546)
Construct: Biotinylate extracellular of the human GIP receptor (bioGIPR, Proteros biostructures GmbH, lot #02/2b); purchased Proteros biostructures GmbH lot #02/2b
Sequence (P48546 22-138 limits assumed): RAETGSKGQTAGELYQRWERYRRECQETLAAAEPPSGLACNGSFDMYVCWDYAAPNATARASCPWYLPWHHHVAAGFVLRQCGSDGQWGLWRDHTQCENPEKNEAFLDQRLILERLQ
Experiment: Surface plasmon resonance (SPR) based binding assay
Conditions: SPR, Single Cycle Kinetic mode, 25° C., 1:1 Langmuir binding model; read-out: pKD Category (converted)
*1 amine or outer side, *2 acyl side, *3 side chain or, on linkers, in order; H or OH if unused. Where a SMILES comes first, the peptide text is derived from it. Bridges are numbered along the chain shown (N, C = ends). [ ]: non-standard residue; d: D form. Trp(5-Cl) = N[C@@H](Cc1c[nH]c2ccc(Cl)cc12)C(=O)O; Pyridine(2,6-diCH2) = c1cc(C[*:1])nc(C[*:2])c1; Hyp = O=C(O)[C@@H]1C[C@@H](O)CN1; Thp = NC1(C(=O)O)CCOCC1

{"compound": "CC[C@H](C)[C@@H]1NC(=O)[C@H](CC(C)C)NC(=O)C2(CCOCC2)NC(=O)[C@@H](NC(=O)[C@@H](CC(C)C)NC(=O)[C@H](CCCCN)NC(=O)[C@@H]2C[C@@H](O)CN2C(=O)[C@H](Cc2c[nH]c3ccc(Cl)cc23)NC(=O)[C@H](Cc2c[nH]c3ccccc23)NC(=O)[C@H](CC(=O)O)NC(C)=O)CSCc2cccc(n2)CSC[C@@H](C(N)=O)NC1=O [GIP-375] (Ac-DW[Trp(5-Cl)][Hyp]K[dL]C[Thp]LIC-NH2; linker 7-11 via Pyridine(2,6-diCH2))", "target": "human GIP receptor (bioGIPR) (Homo sapiens, UniProt P48546)", "Kd": "1 to 7.94 nM"}

Next:
Lookup: // returns reported Kd for input CC[C@H](C)[C@@H]1NC(=O)[C@H](CC(C)C)NC(=O)C2(CCOCC2)NC(=O)[C@@H](NC(=O)[C@@H](CC(C)C)NC(=O)[C@H](CCC(=O)O)NC(=O)[C@@H]2C[C@@H](O)CN2C(=O)[C@H](Cc2c[nH]c3ccc(Cl)cc23)NC(=O)[C@H](Cc2c[nH]c3ccccc23)NC(=O)[C@H](CC(=O)O)NC(=O)CN2CCC(NC(=O)CN3CCN(CC(=O)O)CCN(CC(=O)O)CCN(CC(=O)O)CC3)CC2)CNCc2cccc(c2)CSCCNC1=O
Found: < 1 nM
